Source of measurements: patent US9656959B2

For each of the compounds below, state its log10 of IC50.
target: human Nav1.7 (Homo sapiens (Human), UniProt Q15858); assay: FLIPR or FLIPR TETRA sodium dye assay with KCl and test article pre-incubation; format: cell-based; settings: recombinant Nav1.7/HEK293 cells; CoroNa Green sodium dye; veratridine + scorpion venom agonists; ± SEM
Sequence (Q15858 with tags, fused parts or gaps limits assumed): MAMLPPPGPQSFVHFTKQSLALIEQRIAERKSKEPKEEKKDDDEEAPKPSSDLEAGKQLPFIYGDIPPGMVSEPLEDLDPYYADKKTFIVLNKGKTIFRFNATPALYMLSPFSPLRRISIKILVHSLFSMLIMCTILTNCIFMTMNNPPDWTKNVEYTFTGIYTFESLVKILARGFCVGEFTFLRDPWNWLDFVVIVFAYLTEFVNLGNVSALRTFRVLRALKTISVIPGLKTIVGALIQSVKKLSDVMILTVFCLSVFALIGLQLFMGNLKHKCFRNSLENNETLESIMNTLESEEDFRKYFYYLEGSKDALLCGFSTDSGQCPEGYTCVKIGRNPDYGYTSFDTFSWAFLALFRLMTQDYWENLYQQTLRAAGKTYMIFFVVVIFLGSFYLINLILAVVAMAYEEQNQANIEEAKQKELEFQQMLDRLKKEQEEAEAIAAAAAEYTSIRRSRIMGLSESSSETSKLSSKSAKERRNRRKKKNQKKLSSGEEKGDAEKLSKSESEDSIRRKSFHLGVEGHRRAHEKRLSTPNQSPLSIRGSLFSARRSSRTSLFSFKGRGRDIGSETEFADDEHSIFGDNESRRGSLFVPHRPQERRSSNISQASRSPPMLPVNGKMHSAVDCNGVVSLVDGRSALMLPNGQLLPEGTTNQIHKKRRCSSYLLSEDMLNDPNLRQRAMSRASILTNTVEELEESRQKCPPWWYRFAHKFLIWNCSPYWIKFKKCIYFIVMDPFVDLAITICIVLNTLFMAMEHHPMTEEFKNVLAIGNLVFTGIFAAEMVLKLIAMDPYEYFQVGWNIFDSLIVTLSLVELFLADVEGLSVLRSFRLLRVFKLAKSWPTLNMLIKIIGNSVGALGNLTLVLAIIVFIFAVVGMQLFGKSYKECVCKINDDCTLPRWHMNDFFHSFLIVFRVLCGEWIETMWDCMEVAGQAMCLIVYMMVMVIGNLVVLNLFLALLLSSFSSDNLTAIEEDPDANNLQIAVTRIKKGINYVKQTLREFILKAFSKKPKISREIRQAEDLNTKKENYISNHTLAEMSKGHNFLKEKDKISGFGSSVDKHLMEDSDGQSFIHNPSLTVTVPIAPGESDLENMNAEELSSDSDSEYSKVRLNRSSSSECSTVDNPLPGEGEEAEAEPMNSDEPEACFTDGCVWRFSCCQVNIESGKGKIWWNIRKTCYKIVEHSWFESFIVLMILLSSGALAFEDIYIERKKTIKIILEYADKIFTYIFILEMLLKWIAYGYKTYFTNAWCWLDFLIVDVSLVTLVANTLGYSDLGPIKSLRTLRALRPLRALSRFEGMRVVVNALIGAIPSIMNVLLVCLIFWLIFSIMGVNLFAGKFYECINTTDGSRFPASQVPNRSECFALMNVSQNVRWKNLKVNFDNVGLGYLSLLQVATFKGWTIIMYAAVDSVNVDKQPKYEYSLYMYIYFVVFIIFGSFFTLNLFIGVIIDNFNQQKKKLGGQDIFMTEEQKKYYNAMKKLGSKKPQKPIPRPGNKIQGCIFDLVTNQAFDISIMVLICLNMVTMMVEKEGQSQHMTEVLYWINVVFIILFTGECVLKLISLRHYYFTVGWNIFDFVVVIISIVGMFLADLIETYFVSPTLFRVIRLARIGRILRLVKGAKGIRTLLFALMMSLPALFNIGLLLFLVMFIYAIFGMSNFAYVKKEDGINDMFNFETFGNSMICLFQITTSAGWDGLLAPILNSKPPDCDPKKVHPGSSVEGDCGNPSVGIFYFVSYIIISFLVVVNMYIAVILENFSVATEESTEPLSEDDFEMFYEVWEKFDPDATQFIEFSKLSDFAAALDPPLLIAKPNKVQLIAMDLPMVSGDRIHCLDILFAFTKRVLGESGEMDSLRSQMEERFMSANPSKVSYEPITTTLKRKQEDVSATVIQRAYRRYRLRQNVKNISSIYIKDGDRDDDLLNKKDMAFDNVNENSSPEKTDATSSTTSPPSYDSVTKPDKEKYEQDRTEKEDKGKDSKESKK
// do not treat as linear: log10 of IC50, unit µM

input: Report log10 of IC50 for O=C1NCCN1CCNc1cc([C@H](O)CO)cc(-c2ccc(Oc3ccc(F)cc3)cc2)n1 please.
output: 0.70

input: For the compound CC(=O)N[C@@H](Cc1ccccc1)C(=O)Nc1cccc(-c2ccc(Oc3ccc(F)cc3)cc2)n1 , what log10 of IC50 is on record?
output: -1.19

input: State the recorded log10 of IC50 for this entry: O=C(CO)N[C@@H](CO)C(=O)Nc1cccc(-c2ccc(Oc3ccc(F)cc3)cc2)n1
output: -0.34

input: Item under review: CC(=O)N[C@@H](CC(C)C)C(=O)Nc1cccc(-c2ccc(Oc3ccc(F)cc3)cc2)n1 . Reported log10 of IC50?
output: -1.38

input: Could you share which log10 of IC50 value was measured for N[C@@H](CO)C(=O)Nc1cccc(-c2ccc(Oc3ccc(F)cc3)cc2)n1 ?
output: -0.57

input: Can you look up the measured log10 of IC50 of O=C(Nc1cccc(-c2ccc(Oc3ccc(F)cc3)cc2)n1)C(O)CO (centres unmarked) for me?
output: -1.13

input: Recorded log10 of IC50 for CC(C)C[C@H](NC(N)=O)C(=O)Nc1cccc(-c2ccc(Oc3ccc(F)cc3)cc2)n1 , please?
output: -1.02
